- tested-system: T1, Biotin Y46,48,51(SO3) PSGL-1(42-62) peptide (human, sulfotyrosine at Y46, Y48 and Y51; C-terminal Lys-biotin)
- T1 construct: also called fully sulfated N-terminal PSGL-1 peptide
- T1 peptide: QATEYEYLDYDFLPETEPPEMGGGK
- experiment-description: ELISA, immobilized biotin peptide
# maps each entry to its A450nm, 20 nM mAb
Quick note: give the figure in A450nm, leave out the unit.

binder	A450nm, 20 nM mAb, A450nm
09B09 (antibody, IgG4, V domains shown) VH: EVKLLESGGGLVQPGGSLRLSCAASGITFSTYAMMWVRQAPGKGLEWVSGISGSGASRYYADSVKGRFTISRDNSKNMLYLQMNSLRAEDTAVYYCAKKVLGRRKQYFDDWGQGTLVTVSS VL: DIVMTQSPLSLPVTPGEPASISCRSSQSLLHSNGYNYLDWYLQRPGQSPQLLIYLGSHRASGVPDRFSGSGSGTEHTLKITTVAAEDVGVYYCMQALQSPPTFGQGTRLDIK	2.8
01A11 (antibody, IgG4, V domains shown) VH: EVKLLESGGGLVQPGGSLRLSCATSGFSFSDYWMSWVRQAPGKGLEWVASIKKDGSEKYYVDSVKGRFTISRDNAKNSLYVQMNSLRAEDTAIYYCVVFGAWGPGTLVTVSS VL: DIVMTQTPLSLPVTLGQPASISCRSGRSLVYSDGNTYLNWFQQRPGQSPRRLIYKVSNRDSGVPDRFSGGGSGTDFTLKISRVEAEDVAIYYCMQGTHWPPTFGQGTKLEIK	2.67
09A08 (antibody, IgG4, V domains shown) VH: QVQLVQSGAAVKKPGESLKISCKGSGYTFSNYWIGWVRQMPGKGLEWMGIIYPGDSDTRYSPSFQGQVTISADKSISTAYLQWSSLKASDTAMYYCARHIVGPPKSAFDIWGQGTMVTVSS VL: DIVMTQTPLSLPVTLGQPASISCSSSQGLQKRDGNTYLNWFQQRPGQSPRRLIYKVSNRDSGVPDRFSGSGSGTDFTLKISRVEAEDVGVYYCMQGTHWPWTFGQGTRVEIK	2.43

Consider the additional binder presented here.
Incoming: I would be grateful if you could share the reported A450nm, 20 nM mAb for 02E06 (antibody, IgG4, V domains shown) VH: QVQLVQSGAEVKKPGASVKVSCKASGYSFTDYYMHWVRQAPGQGLEWMGWMNPNSGNTGYAQTFQGRVTMTRNTSISTAYMELSSLRSEDTAVYYCARGRRVRGTPTFEYWGQGTLVTVSS VL: QSVVTQPPSASGTPGQRVTISCSGRSSNIGSYTVNWFQHLPGTGPKLLIYGNNQRPSGVPGRFSGSKSGTSASLAISGLQSNDEATYYCAAWDDSLNGHYVFGTGTKVTVL .
Outgoing: 2.6
